# Measurement Description: viability of HCT116 without oncogenic beta-catenin – human colon tumor cells, pilot screen (AID 823);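 note: 0% = wells killed by 20 µM Hyamine and 100% = untreated DMSO cell wells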
# Condition Notes: HCT116 beta-catenin knockout viability, CellTiter-Glo, 60 h; at 10 µM; stronger effect = lower value
Inconclusive results are not listed. Activity calls are given as the source filed them.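 Rule for the calls: active = cell viability at or below a set limit in both duplicate runs, the limit being the all-compound median minus 4 SD (cut at about 23% in these data, passing the limit was not always enough); inconclusive = no clear call, values can overlap the other calls; inactive = the rest.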
Measure: viability

INSERT INTO assay_data (compound, data_value) VALUES
  ('COc1cccc(C2=N/C(=C\N(C)C)C(=O)O2)c1', '94.7% (inactive)');

Can you look up the measured viability of "CCOC(=O)N1CCC(N2C(=O)c3ccc(C(=O)Nc4ccc(F)cc4F)cc3C2=O)CC1" for me? 91.1% (inactive)

Can you look up the measured viability of COc1ccc(OC)c(C2C(C(=O)Nc3ccc(F)cc3)=C(C)Nc3nc(CCCO)nn32)c1 (centres undefined) for me? 99.6% (inactive)

Can you look up the measured viability of CCOCCCNC(=O)C(NC(=O)c1ccccn1)c1ccc(C)cc1 (centres undefined) for me? 108% (inactive)

----------
# Measurement Description: MRP1 drug-resistance reversers in H69AR cells – cell-based, doxorubicin co-treatment, pilot screen (AID 601)
# Condition Notes: H69AR cells + 2 uM doxorubicin, CellTiter-Glo, 72 h; measured here: viability with 2 uM doxorubicin; at 10 µM; stronger effect = lower value
Reported values of viability for individual entries
Lab book: enter the figure in %, no units written.

INSERT INTO results (compound, measure, data_value) VALUES
  ('O=C(Cn1nc(Cc2ccncc2)c2ccccc2c1=O)N1CCN(C(=O)c2ccco2)CC1', 'viability', 94.2),
  ('O=C(c1ccc(CNc2c(N3CCCC3)c(=O)c2=O)cc1)N1CCc2ccccc2C1', 'viability', 92.6);

Can you look up the measured viability of "NC(=O)c1sc2nc(N3CCCCC3)c3c(c2c1N)CCCC3" for me? 86.4

Can you look up the measured viability of "CCOc1ccc(S(=O)(=O)N2CCN(c3ccc(C)cc3C)CC2)cc1" for me? 105

Can you look up the measured viability of "O=C(NC1CCN(Cc2ccccc2)CC1)C1CCN(S(=O)(=O)c2cccc3cccnc23)CC1" for me? 101

Can you look up the measured viability of CC(NC(=O)c1cc2c(=O)n(C)c3ccccc3c2n1C)c1ccc2c(c1)OCCO2 (stereo unspecified) for me? 63.6

----------
# Measurement Description: S. cerevisiae growth inhibition in restrictive medium, OD615, pilot screen, restrictive growth control, yeast lifespan reduction project (AID 706);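 note: modified DeaD lifespan yeast strain shifted to restrictive glucose medium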
# Condition Notes: OD615, 48 h, at 10 µM, stronger effect = higher value
Reported values of growth inhibition for individual entries
Lab book: enter the figure in %, no units written.

Reference set (10 entries):
INSERT INTO assay_data (compound, data_value) VALUES
  ('C(=N\n1cnnc1)/c1cccc(OCCOc2ccccc2)c1', 13.9),
  ('Cc1nnc(NC(=O)c2ccco2)s1', -8.55),
  ('Cc1ccc(NC(=O)c2cc(-c3ccc(C)o3)nc3ccccc23)nc1', -2.09),
  ('CCOc1ccc(N(C(C)C(=O)NC2CCCCCC2)S(C)(=O)=O)cc1 (configuration not stated)', -21),
  ('CCOC(=O)C1CCCN(C(=O)c2cn(C)c(=O)c3cc(OC)c(OC)cc23)C1 (configuration not stated)', -4.87),
  ('COCCNC(=O)c1cc2c(=O)n3cccc(C)c3nc2n1C', -20.7),
  ('CC(CCC(=O)Nc1nncs1)C(=O)O (configuration not stated)', -5.29),
  ('CCOc1cccc(N2C(=O)CC(NCc3ccc(S(N)(=O)=O)cc3)C2=O)c1 (configuration not stated)', -1.03),
  ('O=S(=O)(c1ccc(OCc2nc3ccccc3s2)c(Cl)c1)N1CCOCC1', 9.42),
  ('Cc1ccc(S(=O)(=O)Cc2ccc(C(=O)N3CCN(Cc4ccccc4)CC3)o2)cc1', -3.51);

Can you look up the measured growth inhibition of "CCCc1cc(C(=O)Nc2ccccc2SC)no1" for me? -21.2
